B1: Twister Ribozyme (parent)
chain: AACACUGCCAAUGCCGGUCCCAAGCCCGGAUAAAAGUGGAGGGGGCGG

Variants of: B1
Experiment: self-cleavage, relative activity (ratio to wild type); higher = more cleavage; co-transcriptional
Assign a class from recorded self-cleavage; defined classes: L: < 0.1; M: ≥ 0.1 and < 0.2; H: ≥ 0.2

The following variants have reported results that may help.
{"columns": ["Sequence", "Label value"],
 "data": [
  ["AACACUCUCAAUGCCGGUCCCAAGCCCGGAUAAAAGUGGAGGGGGCGG", "L"],
  ["AACACUGCCAAUGCUGGUGCCAAGCCCGGAUAAAAGUGGAGGGGGCGG", "H"],
  ["AACACUGCCAAUGCCGGUCCCCAGCCCUGAUAAAAGUGGAGGGGGCGG", "H"],
  ["AACACUGCCAAUCCCGGUCCCAAGCCCGGAUAAAAGUGGAGGGGGCGU", "H"]
]}

(Q) Class? Entry: `AACACUGCCAAUGCCGGUCCGAGGCCCGGAUAAAAGUGGAGGGGGCGG`
(A) M

(Q) Class? Entry: `AACACUGCCGAUGCCGGUCCCAAGCCCGGAUAAACGUGGAGGGGGCGG`
(A) H

(Q) Class? Entry: `AAUACUGCCAAUGGCGGUCCCAAGCCCGGAUAAAAGUGGAGGGGGCGG`
(A) L

(Q) Class? Entry: `AACAUUGCCAAUGCCGGUCCCAAGCCCGGAUAAAUGUGGAGGGGGCGG`
(A) H

(Q) Class? Entry: `UACACUGCCAAUGCCGGUCCCUAGCCCGGAUAAAAGUGGAGGGGGCGG`
(A) L

These entries and their values trace back to the RNAGym collection of RNA variant scans (doi:10.7554/elife.80360).
